# protocol-details: protein stability index of a GFP-peptide fusion (GPS, HEK-293T) (PSI 1-6); higher = more stable;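 note: 24-mer peptide tiles fused after GFP, lentivirally expressed, FACS-sorted into six equal bins by GFP/DsRed ratio, decoded by Illumina sequencing, PSI is the read-weighted mean bin number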
# experimental-context: treatment: DMSO; c terminus: a fixed tail appended
quantity-name: protein stability index
Hey, just send me the number, nothing else.

Examples from the recorded data:
>>> test_value("AEDGGAYLATAKVLITVEDVNDNS [PCDHGA10]")
4.4
>>> test_value("EVDSGRQIEYEYKLAQALHEMREQ [LMNB1]")
4.51
>>> test_value("NNQEEETEFKELDGLREALANLRG [CCDC89]")
4.71

Fill in protein stability index for record QNVDVNVHPTKHEVHFLHEESILE [MLH1] 4.72

Fill in protein stability index for record DDPENKKTSSSSKAGFTASPFTNL [CDC14A] 4.92

Fill in protein stability index for record LFEEPAPQALATRALPCPAHVVFR [FCHSD1] 3.13
